Reported IC50 by item:
# study-system: UniProt Q9BY41
# Sequence (Q9BY41 whole entry): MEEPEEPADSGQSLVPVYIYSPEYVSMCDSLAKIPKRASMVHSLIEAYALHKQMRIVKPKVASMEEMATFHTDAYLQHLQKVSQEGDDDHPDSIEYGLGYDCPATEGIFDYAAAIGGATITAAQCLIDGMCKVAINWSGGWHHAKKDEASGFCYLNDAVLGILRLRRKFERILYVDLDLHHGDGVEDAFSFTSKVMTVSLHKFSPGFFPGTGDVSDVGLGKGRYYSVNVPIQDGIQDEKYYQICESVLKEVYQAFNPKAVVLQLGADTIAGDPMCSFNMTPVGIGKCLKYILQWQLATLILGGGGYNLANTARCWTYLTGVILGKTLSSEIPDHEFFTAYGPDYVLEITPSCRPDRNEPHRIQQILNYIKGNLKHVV
# test-description: Inhibition of HDAC8
# Type: biochemical
# measurement-setup: mean SD of three determinations
measurement-kind: IC50 (nM)

1) COc1ccc(/C=C/C(=O)NO)c(-c2ccc(Oc3ccccc3)cc2)c1 [Compound 22e] ... 174
2) CCCC(COc1cc(OC)ccc1/C=C/C(=O)NO)Oc1ccc(OC)cc1 (centres unmarked) [Compound 18d] ... 200
3) COc1ccc(/C=C/C(=O)NO)c(-c2ccc(Br)cc2)c1 [Compound 22b] ... 5.7
4) COc1ccc(/C=C/C(=O)NO)c(OCc2ccccc2)c1 [Compound 13a] ... 206
5) COc1ccc(/C=C/C(=O)NO)c(-c2cccc3c2oc2ccccc23)c1 [Compound 22g] ... 47.7
6) COc1ccc(OCCOc2cc(OC)ccc2/C=C/C(=O)NO)cc1 [Compound 18a] ... 122
7) CCCCOc1ccc(/C=C/C(=O)NO)c(-c2ccccc2)c1 [Compound 27b, (E)-N-Hydroxy-4-butoxy-2-phenylcinnamide] ... 289
8) O=C(/C=C/c1ccc(-c2ccccc2)cc1-c1ccccc1)NO [Compound 27d, (E)-N-Hydroxy-2,4-diphenylcinnamide] ... 175
9) COc1ccc(COc2cc(OC)ccc2/C=C/C(=O)NO)cc1 [Compound 13d] ... 397
10) CCCCCOc1ccc(/C=C/C(=O)NO)c(-c2ccccc2)c1 [Compound 27c] ... 186
11) COc1ccc(OC(C)COc2cc(OC)ccc2/C=C/C(=O)NO)cc1 (centres unmarked) [Compound 18b] ... 191
12) CCCOc1ccc(/C=C/C(=O)NO)c(-c2ccccc2)c1 [Compound 27a] ... 133
13) COc1ccc(/C=C/C(=O)NO)c(-c2cccc3ccccc23)c1 [Compound 22c] ... 78
14) COc1ccc(/C=C/C(=O)NO)c(-c2ccc(C(=O)c3ccccc3)cc2)c1 [Compound 22f] ... 41.8

====

# Test system: MOLM13 cells
# test-description: Survival/apoptosis of MOLM13 AML cells by Annexin V labeling
# Format: cell-based, human
# measurement-setup: 48-hr, Annexin V labeling; read-out: MOLM13 Apoptosis IC50
measurement-kind: IC50 (µM)

1. COc1ccc(/C=C/C(=O)NO)c(-c2ccc(-c3ccccc3)cc2)c1 [Compound 22d] ... 3.62

====

Below are IC50 values recorded for HDAC11 (Homo sapiens (Human), UniProt Q96DB2).
measurement-kind: IC50

1) COc1ccc(/C=C/C(=O)NO)c(-c2ccc(-c3ccccc3)cc2)c1 [Compound 22d] ... > 20 nM
2) COc1ccc(/C=C/C(=O)NO)c(-c2ccc(Br)cc2)c1 [Compound 22b] ... > 20 nM

====

Reported IC50 by item:
# Test system: CL1-5 cells
# test-description: Cytotoxicity / anti-proliferative activity in CL1-5 lung cancer cells
# measurement-setup: read-out: Cytotoxicity IC50 Cl1-5; mean SD of three determinations
measurement-kind: IC50

1) COc1ccc(/C=C/C(=O)NO)c(-c2ccc(C(=O)c3ccccc3)cc2)c1 [Compound 22f] ... > 10 nM
2) COc1ccc(Cn2ccc3ccc(C(=O)NO)cc32)cc1 [PCI34051, reference compound] ... > 10 nM
3) COc1ccc(/C=C/C(=O)NO)c(-c2ccc(Br)cc2)c1 [Compound 22b] ... > 10 nM

The reported numbers originate from patent US11505523B2.
